Tested on: 885724-159-R-J1-PDC complex spheroid viability
Test: Anticancer human tumor 885724-159-R-J1-PDC patient-derived pancreatic adenocarcinoma cell line growth inhibition [GQUAD]; active = viability on the fitted dose curve at most 10% of control; inactive = the rest
Conditions: second compound 1 µM; first compound 0.316 µM
Classes used: T for active, F for inactive

compound	category
C#Cc1c(F)ccc2cc(O)cc(-c3ncc4c(N5CC6CCC(C5)N6)nc(OCC56CCCN5CC(F)C6)nc4c3F)c12 (stereo not given) + Cc1cnc(CNC(=O)c2c(=O)c3ccc(N4CCCN(C)CC4)nc3n3c2sc2ccccc23)cn1	F
COc1cc(C2c3cc4c(cc3C(OC3OC5COC(C)OC5C(O)C3O)C3COC(=O)C23)OCO4)cc(OC)c1O (stereo not given) + Cc1cnc(CNC(=O)c2c(=O)c3ccc(N4CCCN(C)CC4)nc3n3c2sc2ccccc23)cn1	F
Cc1cccc(N(C)C(=O)C2C(O)CCN2c2nc(C)cc(C(F)(F)F)c2C#N)c1 (stereo not given) + CN(C)c1ccc(Nc2c3ccc(NC(=O)CCN4CCCC4)cc3nc3cc(NC(=O)CCN4CCCC4)ccc23)cc1	F
COc1ccc([C@@H](O)c2cc(-c3ncnc4cc(N5CCOCC5)ccc34)c(F)cc2Cl)nn1 + Cc1cnc(CNC(=O)c2c(=O)c3ccc(N4CCCN(C)CC4)nc3n3c2sc2ccccc23)cn1	F
CCc1c2c(nc3ccc(O)cc13)-c1cc3c(c(=O)n1C2)COC(=O)[C@]3(O)CC + Cc1cnc(CNC(=O)c2c(=O)c3ccc(N4CCCN(C)CC4)nc3n3c2sc2ccccc23)cn1	T

----------
Tested on: 885724-159-R-J1-PDC complex spheroid viability
Assay: Anticancer human tumor 885724-159-R-J1-PDC cell line growth inhibition [GQUAD];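 also: spheroids exposed to agents for seven days before readout; percent of vehicle control viability where 100% = DMSO wells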
Conditions: second compound 10 µM; first compound 0.00999 µM; active compounds read low

molecule	viability, T/C / %
Cc1[nH]c2ccccc2c1CCNCc1ccc(/C=C/C(=O)NO)cc1 + Cc1[nH]c2ccc(F)cc2c1-c1nc2c3cccnc3c3ncccc3c2[nH]1	64
Cn1ncnc1[C@H]1c2n[nH]c(=O)c3cc(F)cc(c23)N[C@@H]1c1ccc(F)cc1 + Cc1cnc(CNC(=O)c2c(=O)c3ccc(N4CCCN(C)CC4)nc3n3c2sc2ccccc23)cn1	83
CC[C@@]1(O)C(=O)OCc2c1cc1n(c2=O)Cc2cc3c(CN(C)C)c(O)ccc3nc2-1 + CN(C)c1ccc(Nc2c3ccc(NC(=O)CCN4CCCC4)cc3nc3cc(NC(=O)CCN4CCCC4)ccc23)cc1	77.3
CC[C@@]1(O)C(=O)OCc2c1cc1n(c2=O)Cc2cc3c(CN(C)C)c(O)ccc3nc2-1 + Cc1[nH]c2ccc(F)cc2c1-c1nc2c3cccnc3c3ncccc3c2[nH]1	70.2

----------
System: 885724-159-R-J1-PDC complex spheroid viability
Experiment: Anticancer human tumor 885724-159-R-J1-PDC cell line growth inhibition [GQUAD];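 also: spheroids exposed to agents for seven days before readout; percent of vehicle control viability where 100% = DMSO wells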
Conditions: second compound 0.1 µM; first compound 0.316 µM; active compounds read low
Recorded viability, T/C for the following compounds
recorded-metric: viability, T/C

compound	readout-value
O=C(NO)c1cnc(N2CCN(S(=O)(=O)c3ccc4ccccc4c3)CC2)nc1 + CN(C)c1ccc(Nc2c3ccc(NC(=O)CCN4CCCC4)cc3nc3cc(NC(=O)CCN4CCCC4)ccc23)cc1	86.5%
O=C(c1cc(Cc2n[nH]c(=O)c3ccccc23)ccc1F)N1CCN(C(=O)C2CC2)CC1 + Cc1[nH]c2ccc(F)cc2c1-c1nc2c3cccnc3c3ncccc3c2[nH]1	92.2%
O=c1[nH]cc(F)c(=O)[nH]1 + Cc1[nH]c2ccc(F)cc2c1-c1nc2c3cccnc3c3ncccc3c2[nH]1	91%
CC[C@@]1(O)C(=O)OCc2c1cc1n(c2=O)Cc2cc3c(CN(C)C)c(O)ccc3nc2-1 + CN(C)c1ccc(Nc2c3ccc(NC(=O)CCN4CCCC4)cc3nc3cc(NC(=O)CCN4CCCC4)ccc23)cc1	67.2%
COc1cc(C2c3cc4c(cc3C(OC3OC5COC(C)OC5C(O)C3O)C3COC(=O)C23)OCO4)cc(OC)c1O (stereo unspecified) + Cc1cnc(CNC(=O)c2c(=O)c3ccc(N4CCCN(C)CC4)nc3n3c2sc2ccccc23)cn1	90.2%
O=C(c1cc(Cc2n[nH]c(=O)c3ccccc23)ccc1F)N1CCN(C(=O)C2CC2)CC1 + Cc1cnc(CNC(=O)c2c(=O)c3ccc(N4CCCN(C)CC4)nc3n3c2sc2ccccc23)cn1	105%
CCCS(=O)(=O)Nc1ccc(F)c(C(=O)c2c[nH]c3ncc(-c4ccc(Cl)cc4)cc23)c1F + CN(C)c1ccc(Nc2c3ccc(NC(=O)CCN4CCCC4)cc3nc3cc(NC(=O)CCN4CCCC4)ccc23)cc1	121%
CC[C@@]1(O)C(=O)OCc2c1cc1n(c2=O)Cc2cc3c(CN(C)C)c(O)ccc3nc2-1 + Cc1cnc(CNC(=O)c2c(=O)c3ccc(N4CCCN(C)CC4)nc3n3c2sc2ccccc23)cn1	75.2%
CC1COCCN1c1cc(C2(O)CC3CCC(C2)O3)c2cnn(-c3ccn[nH]3)c2n1 (stereo unspecified) + Cc1cnc(CNC(=O)c2c(=O)c3ccc(N4CCCN(C)CC4)nc3n3c2sc2ccccc23)cn1	68.3%
C#Cc1c(F)ccc2cc(O)cc(-c3ncc4c(N5CC6CCC(C5)N6)nc(OCC56CCCN5CC(F)C6)nc4c3F)c12 (stereo unspecified) + Cc1[nH]c2ccc(F)cc2c1-c1nc2c3cccnc3c3ncccc3c2[nH]1	102%
Nc1ccn(C2OC(CO)C(O)C2(F)F)c(=O)n1 (stereo unspecified) + CN(C)c1ccc(Nc2c3ccc(NC(=O)CCN4CCCC4)cc3nc3cc(NC(=O)CCN4CCCC4)ccc23)cc1	72.8%
C#Cc1c(F)ccc2cc(O)cc(-c3ncc4c(N5CC6CCC(C5)N6)nc(OCC56CCCN5CC(F)C6)nc4c3F)c12 (stereo unspecified) + Cc1cnc(CNC(=O)c2c(=O)c3ccc(N4CCCN(C)CC4)nc3n3c2sc2ccccc23)cn1	100%
CC(=O)O[C@H]1C(=O)[C@@]2(C)[C@H]([C@H](OC(=O)c3ccccc3)[C@]3(O)C[C@H](OC(=O)[C@H](O)[C@@H](NC(=O)c4ccccc4)c4ccccc4)C(C)=C1C3(C)C)[C@]1(OC(C)=O)CO[C@@H]1C[C@@H]2O + Cc1cnc(CNC(=O)c2c(=O)c3ccc(N4CCCN(C)CC4)nc3n3c2sc2ccccc23)cn1	99.3%
Cn1ncnc1[C@H]1c2n[nH]c(=O)c3cc(F)cc(c23)N[C@@H]1c1ccc(F)cc1 + Cc1[nH]c2ccc(F)cc2c1-c1nc2c3cccnc3c3ncccc3c2[nH]1	80.2%
COc1ccc([C@@H](O)c2cc(-c3ncnc4cc(N5CCOCC5)ccc34)c(F)cc2Cl)nn1 + Cc1[nH]c2ccc(F)cc2c1-c1nc2c3cccnc3c3ncccc3c2[nH]1	90.5%
CC1COCCN1c1cc(C2(S(C)(=N)=O)CC2)nc(-c2ccnc3[nH]ccc23)n1 (stereo unspecified) + Cc1cnc(CNC(=O)c2c(=O)c3ccc(N4CCCN(C)CC4)nc3n3c2sc2ccccc23)cn1	116%
C=CC(=O)N1CCN(c2nc(=O)n(-c3c(C)ccnc3C(C)C)c3nc(-c4c(O)cccc4F)c(F)cc23)C(C)C1 (stereo unspecified) + Cc1cnc(CNC(=O)c2c(=O)c3ccc(N4CCCN(C)CC4)nc3n3c2sc2ccccc23)cn1	107%
O=c1[nH]cc(F)c(=O)[nH]1 + Cc1cnc(CNC(=O)c2c(=O)c3ccc(N4CCCN(C)CC4)nc3n3c2sc2ccccc23)cn1	112%
Cc1cccc(N(C)C(=O)C2C(O)CCN2c2nc(C)cc(C(F)(F)F)c2C#N)c1 (stereo unspecified) + Cc1[nH]c2ccc(F)cc2c1-c1nc2c3cccnc3c3ncccc3c2[nH]1	104%
COc1cccc2c1C(=O)c1c(O)c3c(c(O)c1C2=O)CC(O)(C(=O)CO)CC3OC1CC(N)C(O)C(C)O1 (stereo unspecified) + Cc1[nH]c2ccc(F)cc2c1-c1nc2c3cccnc3c3ncccc3c2[nH]1	89.2%
C=CCn1c(=O)c2cnc(Nc3ccc(N4CCN(C)CC4)cc3)nc2n1-c1cccc(C(C)(C)O)n1 + Cc1[nH]c2ccc(F)cc2c1-c1nc2c3cccnc3c3ncccc3c2[nH]1	84.3%

----------
System: 885724-159-R-J1-PDC complex spheroid viability
Test: Anticancer human tumor 885724-159-R-J1-PDC cell line growth inhibition [GQUAD];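 also: spheroids exposed to agents for seven days before readout; percent of vehicle control viability where 100% = DMSO wells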
Conditions: second compound 0.316 µM; first compound 10 µM; active compounds read low
Description: DNA G-quadruplex Stabilizer Agents in Combinations in Complex Spheroids A high-throughput screen of multi-cell type tumor spheroids was designed to identify active combinations of DNA G-quadruplex stabilizer agents and targeted small molecules. […] Compounds. […] If the clinical Cmax for an agent had not been determined, the highest concentration tested was 10 microM. […]
Could you please mark True for values of viability, T/C below 70% and False for values at or above it?

compound	category
CC1COCCN1c1cc(-c2ccnn2C)c2ccnc(-c3ccn[nH]3)c2n1 (stereo not given) + Cc1cnc(CNC(=O)c2c(=O)c3ccc(N4CCCN(C)CC4)nc3n3c2sc2ccccc23)cn1	True
CC(C)(O)C1CCC(Nc2ccc3ncc(-c4cccc(C(F)(F)F)c4)n3n2)CC1 (stereo not given) + Cc1cnc(CNC(=O)c2c(=O)c3ccc(N4CCCN(C)CC4)nc3n3c2sc2ccccc23)cn1	True
CCCS(=O)(=O)Nc1ccc(F)c(C(=O)c2c[nH]c3ncc(-c4ccc(Cl)cc4)cc23)c1F + Cc1[nH]c2ccc(F)cc2c1-c1nc2c3cccnc3c3ncccc3c2[nH]1	True
CC1COCCN1c1cc(C2(S(C)(=N)=O)CC2)nc(-c2ccnc3[nH]ccc23)n1 (stereo not given) + Cc1cnc(CNC(=O)c2c(=O)c3ccc(N4CCCN(C)CC4)nc3n3c2sc2ccccc23)cn1	False
CCCS(=O)(=O)Nc1ccc(F)c(C(=O)c2c[nH]c3ncc(-c4ccc(Cl)cc4)cc23)c1F + CN(C)c1ccc(Nc2c3ccc(NC(=O)CCN4CCCC4)cc3nc3cc(NC(=O)CCN4CCCC4)ccc23)cc1	True
CC(=O)O[C@H]1C(=O)[C@@]2(C)[C@H]([C@H](OC(=O)c3ccccc3)[C@]3(O)C[C@H](OC(=O)[C@H](O)[C@@H](NC(=O)c4ccccc4)c4ccccc4)C(C)=C1C3(C)C)[C@]1(OC(C)=O)CO[C@@H]1C[C@@H]2O + Cc1[nH]c2ccc(F)cc2c1-c1nc2c3cccnc3c3ncccc3c2[nH]1	False
COc1cc(C2c3cc4c(cc3C(OC3OC5COC(C)OC5C(O)C3O)C3COC(=O)C23)OCO4)cc(OC)c1O (stereo not given) + Cc1cnc(CNC(=O)c2c(=O)c3ccc(N4CCCN(C)CC4)nc3n3c2sc2ccccc23)cn1	False
CC(C)n1c(=O)n(C)c2cnc3cc(F)c(-c4ccc(OCCCN5CCCCC5)nc4)cc3c21 + CN(C)c1ccc(Nc2c3ccc(NC(=O)CCN4CCCC4)cc3nc3cc(NC(=O)CCN4CCCC4)ccc23)cc1	True
CC(C)n1c(=O)n(C)c2cnc3cc(F)c(-c4ccc(OCCCN5CCCCC5)nc4)cc3c21 + Cc1[nH]c2ccc(F)cc2c1-c1nc2c3cccnc3c3ncccc3c2[nH]1	False
Cc1cccc(N(C)C(=O)C2C(O)CCN2c2nc(C)cc(C(F)(F)F)c2C#N)c1 (stereo not given) + Cc1cnc(CNC(=O)c2c(=O)c3ccc(N4CCCN(C)CC4)nc3n3c2sc2ccccc23)cn1	False

Sourced from PubChem BioAssay AID2060502
